Target: MK2 (Homo sapiens)
Sequence (P49137 whole entry): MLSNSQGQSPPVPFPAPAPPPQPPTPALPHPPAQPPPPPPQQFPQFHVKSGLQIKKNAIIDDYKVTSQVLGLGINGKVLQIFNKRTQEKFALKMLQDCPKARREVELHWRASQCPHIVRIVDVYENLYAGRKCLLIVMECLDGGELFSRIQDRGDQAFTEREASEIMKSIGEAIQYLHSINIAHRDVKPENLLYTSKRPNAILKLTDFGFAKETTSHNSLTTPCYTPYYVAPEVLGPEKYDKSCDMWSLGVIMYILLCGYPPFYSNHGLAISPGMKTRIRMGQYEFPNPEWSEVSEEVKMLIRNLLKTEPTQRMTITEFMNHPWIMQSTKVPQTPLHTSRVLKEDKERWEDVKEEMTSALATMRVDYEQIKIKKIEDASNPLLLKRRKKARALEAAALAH
Experiment: MK2 degradation in human THP-1 monocytic cells (MSD, 24 h)
Assay type: cell-based
Design: endogenous in cells
Details: THP-1 cells
I'd be grateful if you could share measured Dmax for these entries.

- Compound: "C[C@@H]1CNc2c(sc3ccc4nc(N5CCC(CN6CCC7(CC6)CN(c6ccc8c(c6)n(C)c(=O)n8C6CCC(=O)N(C)C6=O)C7)CC5)ccc4c23)C(=O)N1 (some centres unmarked) [I-52]"
  Assay metric: "Dmax"
  Reported value: "> 75%"

For each of the compounds below, state Dmax.
1. C[C@@H]1CNc2c(sc3ccc4nc(N5CCC(COC6CCN(c7ccc8c(c7)n(C)c(=O)n8C7CCC(=O)NC7=O)CC6)CC5)ccc4c23)C(=O)N1 (some centres unmarked) [I-38]
2. Cn1c(=O)n(C2CCC(=O)NC2=O)c2ccc(C#CCN3CCN(c4ccc(-c5nccc(-c6cc7c([nH]6)C6(CC6)CNC7=O)n5)cc4)CC3)cc21 (centres unmarked) [I-41]
3. Cn1c(=O)n(C2CCC(=O)NC2=O)c2ccc(N3CC(CN4CCN(c5ccc(-c6nccc(-c7cc8c([nH]7)C7(CC7)CNC8=O)n6)cc5)CC4)C3)cc21 (centres unmarked) [I-45]

50 to 75%
> 75%
> 50%

For each of the compounds below, state Dmax.
1. Cn1c(=O)n(C2CCC(=O)NC2=O)c2cccc(OCCN3CCN(c4ccc(-c5nccc(-c6cc7c([nH]6)C6(CC6)CNC7=O)n5)c(F)c4)CC3)c21 (centres unmarked) [I-24]
2. C[C@@H]1CNc2c(sc3ccc4nc(N5CCC(N(CC(F)(F)F)C6CC7(CCN(c8ccc9c(c8)n(C)c(=O)n9C8CCC(=O)NC8=O)CC7)C6)CC5)ccc4c23)C(=O)N1 (some centres unmarked) [I-27]
3. C[C@@H]1CNc2c(sc3ccc4nc(N5CCC(CN6CCC(N7CC(c8ccc9c(c8)n(C)c(=O)n9C8CCC(=O)NC8=O)C7)CC6)CC5)ccc4c23)C(=O)N1 (some centres unmarked) [I-43]
4. C[C@@H]1CNc2c(sc3ccc4nc(N5CCN(C[C@H]6C[C@@]7(CCN(c8ccc9c(c8)n(C)c(=O)n9C8CCC(=O)NC8=O)C7)C6)CC5)ccc4c23)C(=O)N1 (some centres unmarked) [I-40]
5. C[C@@H]1CNc2c(sc3ccc4nc(N5CCN(C[C@H]6C[C@]7(CCN(c8ccc9c(c8)n(C)c(=O)n9C8CCC(=O)NC8=O)C7)C6)CC5)ccc4c23)C(=O)N1 (some centres unmarked) [I-39]
6. Cn1c(=O)n(C2CCC(=O)NC2=O)c2ccc(N3CC(CN4CCC(n5cc(-c6nccc(-c7cc8c([nH]7)C7(CC7)CNC8=O)n6)cn5)CC4)C3)cc21 (centres unmarked) [I-44]
7. Cn1c(=O)n(C2CCC(=O)NC2=O)c2ccc(N3CC(CN4CCN(c5ccc(-c6cc(-c7cc8c(o7)C7(CC7)CNC8=O)ccn6)cc5)CC4)C3)cc21 (centres unmarked) [I-28]

1: > 75%; 2: > 75%; 3: > 75%; 4: > 75%; 5: > 50%; 6: > 50%; 7: > 75%

For each of the compounds below, state Dmax.
1. Cn1c(=O)n(C2CCC(=O)NC2=O)c2ccc(N3CC(CN4CCN(c5ccc(-c6nccc(-c7cc8c([nH]7)C(C)(C)CNC8=O)n6)cc5)CC4)C3)cc21 (centres unmarked) [I-22]
2. Cn1c(=O)n(C2CCC(=O)NC2=O)c2ccc(N3CC(CN4CCN(c5ccc(-c6nccc(-c7cc8c([nH]7)C7(CC7)CNC8=O)n6)cc5C(F)(F)F)CC4)C3)cc21 (centres unmarked) [I-48]
3. C[C@@H]1CNc2c(sc3ccc4nc(N5CCN(CCC6CC7(CCN(C(=O)c8ccc(Cl)c(N9CCC(=O)NC9=O)c8)CC7)C6)CC5)ccc4c23)C(=O)N1 [I-35]
4. COc1ccc2c(c1CCN1CCN(c3ccc(-c4nccc(-c5cc6c([nH]5)C5(CC5)CNC6=O)n4)cc3)CC1)n(C)c(=O)n2C1CCC(=O)NC1=O (centres unmarked) [I-42]
5. C[C@@H]1CNc2c(sc3ccc4nc(N5CCN(CC6CCC7(CC6)CN(c6ccc(NC8CCC(=O)NC8=O)cc6F)C7)CC5)ccc4c23)C(=O)N1 (some centres unmarked) [I-20]
6. Cn1c(=O)n(C2CCC(=O)NC2=O)c2ccc(N3CC(CN4CCC(N5CCN(c6nccc(-c7cc8c([nH]7)C7(CC7)CNC8=O)n6)CC5)CC4)C3)cc21 (centres unmarked) [I-34]

> 75%
> 75%
> 75%
> 75%
> 75%
> 50%

For each of the compounds below, state Dmax.
1. Cn1c(=O)n(C2CCC(=O)NC2=O)c2ccc(N3CC(CN4CCN(c5ccc(-c6nccc(-c7cc8c([nH]7)C7(CC7)CNC8=O)n6)cc5OC5CC5)CC4)C3)cc21 (centres unmarked) [I-47]
2. C[C@@H]1CNc2c(sc3ccc4nc(N5CCN(C6CC7(CCN(c8ccc(NC9CCC(=O)NC9=O)cc8F)CC7)C6)CC5)ccc4c23)C(=O)N1 (some centres unmarked) [I-25]
3. C[C@@H]1CNc2c(sc3ccc4nc(N5CCN(CC6CCC7(CC6)CN(c6ccc8c(N9CCC(=O)NC9=O)cncc8c6)C7)CC5)ccc4c23)C(=O)N1 [I-23]
4. Cn1c(=O)n(C2CCC(=O)NC2=O)c2ccc(N3CC(CN4CCN(c5ccc(-c6nccc(-c7cc8c([nH]7)C7(CC7)CNC8=O)n6)cc5C#N)CC4)C3)cc21 (centres unmarked) [I-37]
5. Cn1c(=O)n(C2CCC(=O)NC2=O)c2ccc(N3CCN(CC#Cc4ccc(-c5nccc(-c6cc7c([nH]6)C6(CC6)CNC7=O)n5)cc4)CC3)cc21 (centres unmarked) [I-51]
6. Cn1c(=O)n(C2CCC(=O)NC2=O)c2ccc(N3CC(CN4CCN(c5ccc(-c6nccc(-c7cc8c([nH]7)C7(CC7)CNC8=O)n6)cc5C5CC5)CC4)C3)cc21 (centres unmarked) [I-49]

1: > 50%; 2: > 75%; 3: > 75%; 4: > 75%; 5: > 75%; 6: 50 to 75%
